Test system: M14 melanoma
Assay: NCI-60 one-dose screen, 48 h (100 = growth as untreated, 0 = no growth, -100 = all killed)
Conditions: 10 µM
The panel holds about 83,000 compounds, 20% with a hit somewhere; the sample as a whole holds those more often.
This listing pairs molecules with measured growth.

{"columns": ["MOLECULE", "QUANTITY UNIT", "growth"],
 "data": [
  ["O=C(NC(Cc1ccc(O)cc1)C(=O)N=Nc1c(O)[nH]c2ccccc12)c1ccccc1 (centres undefined)", "%", 94],
  ["O=C(Nc1ccc(CO)cc1)c1ccccc1Nc1ccnc(C(F)(F)F)c1", "%", 99.8],
  ["CCN(CC)CCCC(C)Nc1ccc2ccc(Cl)cc2n1 (centres undefined)", "%", 103],
  ["Cn1c(N)c(N=Nc2ccc(S(=O)(=O)Nc3nccs3)cc2)c(=O)n(C)c1=O", "%", 101]
]}

* * *

Tested on: M14 melanoma
Experiment: NCI-60 one-dose screen, 48 h (100 = growth as untreated, 0 = no growth, -100 = all killed)
Settings: 10 µM
Compounds without any hit were thinned out: in the full panel of roughly 83,000, 20% have a hit.
TEST READOUT: growth (%)

{"columns": ["COMPOUND", "TEST READOUT", "REPORTED VALUE"],
 "data": [
  ["COc1ccc(-c2csc(NC(=O)CSc3nc(C)c(-c4ccccc4)n3Nc3ccccc3)n2)cc1", "growth", 50.4],
  ["O=C(CC(c1ccccc1)N1CCOCC1)c1ccccc1 (configuration not stated)", "growth", 95.8],
  ["COc1ccc(/C=C2/CN(CCC#N)C/C(=C\\c3ccc(OC)cc3)C2=O)cc1", "growth", 0.654],
  ["O=C(Cc1csc2nc(-c3ccc(Cl)cc3)cn12)N/N=C/c1ccccc1O", "growth", 47.1],
  ["Clc1ccccc1N=Cc1ccc2c(c1)OCO2", "growth", 103],
  ["N#CC1=C(Nc2ccccc2Cl)SC(c2ccccc2O)NC1=O (configuration not stated)", "growth", 109],
  ["CC(=O)CSC(C)=O", "growth", 103],
  ["COc1cc2cc3c(nc2cc1OC)CCN3Cc1ccc(NC(=O)c2ccc(Cl)c(C(F)(F)F)c2)cc1", "growth", 104],
  ["CCN(CC)CCNC(=O)c1ccc(NC(C)=O)cc1", "growth", 109],
  ["O=C(C[P+](c1ccccc1)(c1ccccc1)c1ccccc1)C[P+](c1ccccc1)(c1ccccc1)c1ccccc1", "growth", -75.4],
  ["CSc1nc(=O)n(Cc2ccc(F)cc2)c(=O)n1Cc1ccc(C)cc1", "growth", 99.7],
  ["COc1cc(C(=C2O[C@@H]([C@H]3COC(C)(C)O3)[C@H]3OC(C)(C)O[C@@H]23)c2cc(OC)c(OC)c(OC)c2)cc(OC)c1OC", "growth", 106]
]}

* * *

Test system: IGROV1 ovarian
Assay: NCI-60 one-dose screen, 48 h
Settings: 10 µM
This is part of a sample that, as a whole, favours compounds with a hit. Of some 83,000 tested, about 20% had one in any assay. Calls of active or inactive are those of the source. Rule for the calls: active = growth percent below 10; inactive = the rest.
Possible outcomes: TRUE (active), FALSE (inactive)

{"columns": ["MOLECULE", "CLASS NAME"],
 "data": [
  ["CN(CCc1ccccn1)c1ccccc1", "FALSE"],
  ["COc1ccc2c(c1)-c1c(c3cc(OC)ccc3n(CCN(C)C)c1=O)C2=O", "TRUE"],
  ["CCN(CC)CCCOCCCNc1cc(OC)cc2cccnc12", "FALSE"],
  ["O=C(NC(Cc1ccc(O)cc1)C(=O)N=Nc1c(O)[nH]c2ccccc12)c1ccccc1 (stereo not given)", "FALSE"],
  ["COc1cc(Cc2cc(-c3ccc(Cl)cc3)n[nH]c2=O)ccc1O", "FALSE"],
  ["CCOCCOCCOCCOCCOCCOCCOCCOCCOCCO (tested in a mixture with another compound)", "FALSE"],
  ["CC12O[C@H](C[C@@H](O)[C@H]1O)n1c3ccccc3c3c4c(c5c6ccccc6n2c5c31)C(=O)N(CCCN)C4=O", "FALSE"],
  ["O=C(CNC(=O)OCc1ccccc1)NCC(=O)Oc1ccc([N+](=O)[O-])cc1", "FALSE"],
  ["COc1ccc(Nc2nc3ccc(NC(=O)NC4CCCCC4)cc3[nH]c2=O)cc1", "FALSE"],
  ["CCN(CC)CCN1CC(=O)Nc2cc(Cl)ccc21", "FALSE"],
  ["CC(C)=CCc1cc(O)cc2c1OC(C=C(C)C)C1=C2C(=O)C2=C(NCCS2(=O)=O)C1=O (stereo not given)", "TRUE"],
  ["CSc1nc(=O)n(Cc2ccc(F)cc2)c(=O)n1Cc1ccc(C)cc1", "FALSE"],
  ["CN1CC[C@@H](c2c(O)cc(O)c3c(=O)cc(-c4ccccc4Cl)oc23)[C@@H](O)C1", "TRUE"],
  ["N#Cc1ncc(-c2cc(F)c(F)c(F)c2)c(NC2CCCCCC2)n1", "FALSE"],
  ["CC(C)(C)NC/C(=C\\c1ccccc1)C(=O)c1ccccc1", "TRUE"],
  ["COc1cc(C)ccc1C(=O)c1ccc(C)cc1OC", "FALSE"],
  ["O=C(O)CC(Cl)C(Cl)CC(=O)O (stereo not given)", "FALSE"],
  ["CC1(C)N=C(N)N=C(N)N1c1ccc(CCc2ccccc2)c(Cl)c1", "FALSE"],
  ["C/C(=N\\Nc1nc2ccccc2s1)c1ccncn1", "TRUE"],
  ["O=C(Nc1cccc(-n2cc(-c3ccncc3)c(-c3ccc(O)c(Cl)c3)n2)c1)c1ccc(N2CCOCC2)c(C(F)(F)F)c1", "FALSE"],
  ["CCn1cc(C(=O)O)c(=O)c2cnc(N3CCCC3)nc21", "FALSE"],
  ["Cc1ccc(NC(=O)CSc2nc3ccccc3c(=O)n2CCc2ccccc2)c(C(=O)O)c1", "FALSE"],
  ["COc1ccc(-c2nn(-c3cccc(NC(=O)c4ccc(N5CCOCC5)c(C(F)(F)F)c4)c3)cc2-c2ccncc2)cc1Cl", "FALSE"],
  ["COc1ccc(-c2nc3sccn3c2-c2nc3c([nH]2)C(=O)c2ccccc2C3=O)cc1", "FALSE"],
  ["Cc1cc(O)c(C(C)(C)C)cc1Sc1cc(C(C)(C)C)c(O)cc1C", "FALSE"]
]}

* * *

This listing pairs compounds with measured growth.
Test system: HCT-15 colon
Experiment: NCI-60 one-dose screen, 48 h (100 = growth as untreated, 0 = no growth, -100 = all killed)
Details: 10 µM
The panel holds about 83,000 compounds, 20% with a hit somewhere; the sample as a whole holds those more often.
TEST READOUT: growth (%)

{"columns": ["COMPOUND", "TEST READOUT", "REPORTED VALUE"],
 "data": [
  ["Cc1ccc(-c2n[nH]c(=O)c3noc(-c4ccc(C)cc4)c23)cc1", "growth", 33.1],
  ["O=C1ON=[N+](c2ccc(Cc3ccc([N+]4=NOC(=O)C4CN4CCOCC4)cc3)cc2)C1CN1CCOCC1 (stereo unspecified)", "growth", 78.6],
  ["COc1cc(-c2cc(/C=C/C(=O)c3ccc(Cl)c(Cl)c3)[nH]n2)cc(OC)c1OC", "growth", 50.9],
  ["O=C1/C(=C\\c2ccc(Cl)cc2)CN(C(=S)Nc2ccccc2)C/C1=C\\c1ccc(Cl)cc1", "growth", -34.7],
  ["O=C1/C(=C/c2ccc([N+](=O)[O-])o2)Oc2ccccc21", "growth", 1.63],
  ["Oc1[nH]c2ccc(Cl)cc2c1/C=c1/ccc2c(c1)N=C(c1cc(F)cc(F)c1)N=2", "growth", 46.1],
  ["Cc1ccc(NC(=O)Nc2c(Cl)cccc2Cl)cn1", "growth", 100],
  ["C[C@@H]1C=C2C(=O)O[C@@H]3CC[C@H](C1)[C@]23O", "growth", 62.5],
  ["N#CCCN1C/C(=C/c2ccccc2)C(=O)/C(=C/c2ccccc2)C1", "growth", -56.4],
  ["Cc1ccc(C(=O)Nc2cccc(F)c2)cc1NC(=O)C1(c2ncnc3[nH]ccc23)CC1", "growth", 88.8],
  ["Cc1ccc(S(=O)(=O)Oc2ccc3c4c(c(=O)oc3c2)CCCCC4)cc1", "growth", 41.3],
  ["O=C1OCC2=C1C(c1ccc(Cl)c(Cl)c1)c1cc3c(cc1N2CCO)OCCO3 (stereo unspecified)", "growth", 18.3],
  ["COc1ccc2nc3ccccc3c(NCCNCC(C)O)c2c1 (stereo unspecified)", "growth", 23.1],
  ["Cc1cc(N(CCCNc2ccnc3cc(Cl)ccc23)Cc2cccs2)nc(Cl)n1", "growth", 24.3],
  ["CCCN(CCC)CCC(O)c1cc2c(c3ccccc13)CCCC2 (stereo unspecified)", "growth", 81.4],
  ["N#CCCN1C/C(=C/c2ccc(Br)cc2)C(=O)/C(=C/c2ccc(Br)cc2)C1", "growth", 0.513],
  ["O=C(Nc1nc(-c2ccccc2Cl)cs1)c1cc(-c2ccc(Cl)cc2)nc2ccc(Cl)cc12", "growth", 8.89],
  ["COc1ccc(-c2nc(-c3nc4ccc(Cl)cc4[nH]3)c3ccccn23)cc1", "growth", 62.8],
  ["Cc1cc(N(CCCNc2ccnc3cc(Cl)ccc23)Cc2ccc3c(c2)OCO3)nc(N2CCCCC2)n1", "growth", -78.3],
  ["CCOC(=O)CCC(NC(=O)c1ccc(N)cc1)C(=O)OCC (stereo unspecified)", "growth", 98.7],
  ["CCOC(=O)N/N=C\\C(C)=N\\NC(=O)OCC", "growth", 99.5],
  ["C#Cc1ccc(-n2c(/C=C/c3cc(OC)cc(OC)c3)nc3ncccc3c2=O)cc1", "growth", 82.8],
  ["CCN(CC)CCOc1nc2ccccc2c2c1-c1ccc(OC)cc1C2=O", "growth", 2.9],
  ["CCOCC(=O)C(C#N)c1ccc(Cl)c(Cl)c1 (stereo unspecified)", "growth", 89.9],
  ["CCc1ccc2c(c1)N(CCO)C1=C(C(=O)OC1)C2c1cc(OC)c(OC)c(OC)c1 (stereo unspecified)", "growth", 6.93],
  ["c1ccc(CNc2ncnc3scc(-c4cccs4)c23)nc1", "growth", 76],
  ["O=C(NC(Cc1ccc(O)cc1)C(=O)N=Nc1c(O)[nH]c2ccccc12)c1ccccc1 (stereo unspecified)", "growth", 103],
  ["CC(C)=CCc1cc(O)cc2c1OC(C=C(C)C)C1=C2C(=O)C2=C(NCCS2(=O)=O)C1=O (stereo unspecified)", "growth", 28.4],
  ["COc1ccc(Oc2nc(NC3CCCC3)nc(Sc3ccc(OC)cc3)n2)cc1", "growth", 43.9],
  ["C#Cc1ccc(-n2c(/C=C/c3ccc4ccccc4n3)nc3ncccc3c2=O)cc1", "growth", -18.8],
  ["O=C1c2ccc3c4c(ccc(c24)C(=O)N1CCNCc1ccccc1)C(=O)N(CCNCc1ccccc1)C3=O", "growth", -25.9],
  ["COc1ccc(C2=Nc3c(C)nn(-c4ccccc4)c3NC(c3ccc(Oc4ccnc5cc(Cl)ccc45)c(OC)c3)C2)cc1 (stereo unspecified)", "growth", 62.9],
  ["CCN1CCC(CCOC)(CN2c3ccccc3Sc3ccc(Cl)cc32)C1 (stereo unspecified)", "growth", 49.1],
  ["COc1ccc(OC)c(/C=C/c2nc(SC)n(-c3ccc(Cl)cc3)n2)c1", "growth", 58.9],
  ["Cc1nc2ccccc2c(N)c1-c1cc(C)c2c(C)nc3ccccc3c2n1", "growth", -90],
  ["Nc1ccccc1NC(=O)CCCCC(=O)Nc1ccc2c(c1)/C(=C/c1ccc[nH]1)C(=O)N2", "growth", 92.2]
]}
